Molecular target: MGL activity in HeLa cell homogenate (Homo sapiens, UniProt Q99685)
Construct: HeLa cells were homogenated with a Polytron; endogenous in cells; host or cells: HeLa cell homogenate
Sequence (Q99685 1-303): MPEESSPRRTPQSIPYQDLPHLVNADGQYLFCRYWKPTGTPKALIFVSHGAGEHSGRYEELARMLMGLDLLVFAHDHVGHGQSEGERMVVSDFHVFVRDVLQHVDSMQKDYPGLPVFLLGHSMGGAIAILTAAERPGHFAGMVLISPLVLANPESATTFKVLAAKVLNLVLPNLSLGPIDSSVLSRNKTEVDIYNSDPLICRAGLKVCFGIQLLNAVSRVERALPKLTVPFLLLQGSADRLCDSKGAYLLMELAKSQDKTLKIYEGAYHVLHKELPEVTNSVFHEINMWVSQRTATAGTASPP
Assay: 2-AG Accumulation Assay in HeLa cell homogenate
Type: biochemical
Details: compound 1 μM, accumulated 2-AG relative to MAFP 2-AG x100
Listing: Example 4 % MAFP @ 1 μM of selected compounds
assayMetric: Example 4 % MAFP @ 1 μM

• O=C(c1cccc2nc(-c3ccc(F)cc3)oc12)N1CC(N2CCN(c3ccccn3)CC2)C1 = 30.6 % MAFP
• O=C(c1ccc2nc(C3CCCCC3)oc2c1)N1CC(N2CCN(c3ccccn3)CC2)C1 = 39.7 % MAFP
• CC(C)(C)c1nc2ccc(C(=O)N3CC(N4CCN(c5ccccn5)CC4)C3)cc2o1 = 19.9 % MAFP
• O=C(c1cccc2nc(-c3cccc(F)c3)oc12)N1CC(N2CCN(c3ccccn3)CC2)C1 = 45.7 % MAFP
